Listing of entries alongside the reported GI50.
Tested on: MDA-MB-435
Protocol Description: NCI tumour cell line growth inhibition, 48 h
The source made the active and inactive calls. No stated cut-off is given here; in the data, active = GI50 up to about 1.1 µM and inactive = higher.

Would you please look over these solved cases?
# Compound, GI50
records = [
    ("O=C(/C=C\\c1ccc(Cl)cc1Cl)c1cccs1", "16.6 µM (inactive)"),
    ("N#Cc1c(O)n(-c2ccccc2)c(=O)c2c(N)n[nH]c12", "> 100 µM (inactive)"),
    ("COC(=O)C1(SC)C2CCC3C2CCC31 (stereo not drawn)", "> 100 µM (inactive)"),
    ("Cc1ccc(/N=N/c2cc(=O)[nH]c(=O)[nH]2)cc1C", "11.2 µM (inactive)"),
    ("CN1C/C(=C\\c2cccs2)C(=O)/C(=C/c2cccs2)C1", "16 µM (inactive)"),
]

Name the recorded GI50 for `O=C(O)[C@@H]1NC[C@H]2C(Br)=NO[C@H]21` .
> 100 µM (inactive)

Would you kindly share the measured GI50 for NC(Cc1ccc(S(=O)(=O)O)cc1)C(=O)NC(Cc1ccc(S(=O)(=O)O)cc1)C(=O)O (stereo not drawn) ?
> 100 µM (inactive)

// query GI50 value for entry `C#C[C@]1(O)CC[C@H]2[C@@H]3CCC4=C/C(=N/CCOC(=O)c5cccc6c(=O)c7ccccc7[nH]c56)CC[C@@H]4[C@H]3CC[C@@]21C`
31.8 µM (inactive)

# input compound: `O=Nc1ccc(O)c2ncccc12` ; wanted: its GI50
1.26 µM (inactive)

Endpoint output: GI50 of `COc1ccc(C(=C2C=CC=C2)c2ccc(OC)cc2)cc1` . Value?
35.8 µM (inactive)

What does the record list as GI50 for N#C[BH2-][n+]1cn(C2CC(OP(=O)(O)OCC3OC(n4cnc5c(N)ncnc54)CC3O)C(CO)O2)c2nc(N)[nH]c(=O)c21 (stereo not drawn) ?
> 100 µM (inactive)

Consider the compound C=CC(OC(=O)C(C)C)c1ccc(OC(=O)C(C)C)cc1 (stereo not drawn) and give its measured GI50.
13.6 µM (inactive)

So what's the measured GI50 for this one? CCOC(=O)c1cc(C2CCN(CC(C)CC)C2=S)c(C(=O)/C=C(/C)N)[nH]1 (stereo not drawn)
> 50 µM (inactive)

Suppose we examine the compound Cc1cc(NCC2CC/C(=C\C=C\c3ccccc3)C2=O)no1 (stereo not drawn) ; what GI50 value has been reported?
> 100 µM (inactive)

// returns reported GI50 for input CC1CC(=O)Nc2nc3ccccc3n21 (stereo not drawn)
> 100 µM (inactive)

Reported GI50 for `CN(C)CCCNc1ccc2nnn3c4ccc(OC(=O)c5ccc([N+](=O)[O-])cc5)cc4c(=O)c1c23` : what is it?
5.7 µM (inactive)

###

System: OVCAR-3
Protocol Description: NCI tumour cell line growth inhibition, 48 h
Counter-ions that a name gives are not always drawn. Activity calls are given as the source filed them. Rule as the data show it: active = GI50 up to about 1.1 µM and inactive = higher.
GI50 values, listed per item

Please review the following examples before continuing.
# Compound, System Name, GI50
rows = [
    ("COc1ccc2cc1Oc1ccc(cc1)CC1c3cc4c(cc3CCN1C)Oc1c(OC)cc3c(c1O4)C(C2)N(C)CC3 (stereo not drawn)", "OVCAR-3", "5.81 µM (inactive)"),
    ("CC(C)CC[C@H](O)[C@@H](C)[C@H]1[C@@H](OC2OC(C)C(O)C(O)C2O)C[C@H]2[C@@H]3CC=C4C[C@@H](O)CC[C@]4(C)[C@H]3[C@@H](O)C[C@]12C (stereo partly drawn)", "OVCAR-3", "> 100 µM (inactive)"),
    ("CC(=O)Oc1ccc(O)c2c1CCCC2", "OVCAR-3", "12.5 µM (inactive)"),
    ("NCCS [CYSTEAMINE HYDROCHLORIDE]", "OVCAR-3", "> 100 µM (inactive)"),
    ("CC(=O)Nc1ccc(-c2nc3ccccc3s2)cc1O", "OVCAR-3", "94.8 µM (inactive)"),
]

Request the reported GI50 associated with `COc1cccc2ccc(C(=O)c3ccccc3)nc12`
> 100 µM (inactive)

What does the data say about its GI50? Entry: CC1[C@@]2(O[C@@H]3C=C4C5CCC6Cc7nc8c(nc7C[C@@]6(C)C5C[C@H](O)[C@@]4(C)[C@]13O)CC1CCc3c(cc4c5c3C(O)C[C@H]5[C@@H](C)C3(O4)OC(C)(C)CC3O)[C@]1(C)C8)O[C@@](C)(CO)C[C@@H]2O (stereo partly drawn)
1.32 µM (inactive)

Fill in: GI50 of `C1CSC[C@H]2COC[C@@H](CSCCS1)S2` is ___
> 100 µM (inactive)

Which GI50 is reported for this compound? `C/C(N)=N/OCc1nc(C)no1`
> 100 µM (inactive)

Given the compound O=C1C[S+]([O-])C23c4cc5ccccc5n4CCC2CCCN13 (stereo not drawn) , what is its reported GI50?
> 100 µM (inactive)

###

Test system: M14
Protocol Description: NCI tumour cell line growth inhibition, 48 h
Calls of active or inactive are those of the source. Cut-off read from the data, not from the text of the source: active = GI50 up to about 1.1 µM and inactive = higher.
Endpoint Label: GI50

Before answering, review these 10 worked examples.
# Compound, GI50
rows = [
    ("Cc1cccc(NC(N)=S)c1", "> 100 µM (inactive)"),
    ("CN1C/C(=C\\c2cccs2)C(=O)/C(=C/c2cccs2)C1", "21.1 µM (inactive)"),
    ("COc1cc(Cc2cnc(N)nc2N)cc(OC)c1OCCCNc1ccc([N+](=O)[O-])cc1", "6.35 µM (inactive)"),
    ("OCCc1ccsc1-c1sc(-c2cc(CCO)c(-c3sccc3CCO)s2)cc1CCO", "11.3 µM (inactive)"),
    ("O=C(OCc1nc2ccc(Br)cc2c(=O)n1-c1ccccc1)c1ccccc1O", "> 100 µM (inactive)"),
    ("COC(=O)c1c(C#N)c(N)nc2c1CCC2", "> 100 µM (inactive)"),
    ("C/C(N)=N/OCc1nc(C)no1", "> 100 µM (inactive)"),
    ("Clc1cc(OC2C3CC4CC(C3)CC2C4)nc(Cl)n1 (configuration not stated)", "16.2 µM (inactive)"),
    ("O=C(NN=C1NCCCN1)c1ccco1", "> 100 µM (inactive)"),
    ("O=C1NCN(c2ccccc2)C12CCN(CCc1ccc3[nH]c(=S)[nH]c3c1)CC2", "19.6 µM (inactive)"),
]

// switching to the query compound
Please look up its GI50: `Cc1ccc(C(=O)N/N=C(\N=N\c2cccc([N+](=O)[O-])c2)c2ccc(N(C)C)cc2)cc1`
29.2 µM (inactive)

###

System: SF-295
Protocol Description: NCI tumour cell line growth inhibition, 48 h
Activity calls are given as the source filed them. Rule as the data show it: active = GI50 up to about 1.1 µM and inactive = higher.
Reply using exactly one outcome from yes = active, no = inactive

Worked examples follow.
# Molecule, Class Name
measured = [
    ("C=CC(OC(=O)C(C)C)c1ccc(OC(=O)C(C)C)cc1 (stereo not drawn)", "no"),
    ("CC(=N/NC(=S)Nc1c(C)n(C)n(-c2ccccc2)c1=O)/C(C)=N\\NC(=S)Nc1c(C)n(C)n(-c2ccccc2)c1=O", "no"),
    ("C=CCC(OCCOCC)c1cc(OCCOCC)ccc1OC (stereo not drawn)", "no"),
    ("S=C1NCN2CCN(CC2)CNC(=S)C(=S)NCN2CCN(CC2)CNC1=S", "no"),
    ("O=C1C=C(O)c2nc(O)ccc2C1=O", "no"),
]

Each molecule tested received a call. Report the one for `N#Cc1c(Cl)cc(C#N)n2c1nc1ccccc12` .
no

// return assay outcome for `CN(C)CCNCCCNc1c2ccccc2nc2cccc([N+](=O)[O-])c12`
yes

// return assay outcome for Cc1nn(C(=O)Cc2ccccc2)c2c1C(c1ccc(O)cc1)SC(=N)N2 (stereo not drawn)
no

###

Test system: UACC-257
Protocol Description: NCI tumour cell line growth inhibition, 48 h
Activity calls are given as the source filed them. No stated cut-off is given here; in the data, active = GI50 up to about 1.1 µM and inactive = higher.
GI50 by entry:

Below: 4 compounds and their reported GI50.
# Compound, GI50
measured = [
    ("Oc1[nH]c(Nc2cccc(Br)c2)nc2ncnc1-2", "> 100 µM (inactive)"),
    ("O=C1/C(=C/c2ccc(O)cc2)CCCC1CN1CCCCC1 (centres undefined)", "2.52 µM (inactive)"),
    ("Cn1c2cc(O)cc(O)c2c(=O)c2c([N+](=O)[O-])cccc21", "> 100 µM (inactive)"),
    ("CC(=N/NC(=S)Nc1c(C)n(C)n(-c2ccccc2)c1=O)/C(C)=N\\NC(=S)Nc1c(C)n(C)n(-c2ccccc2)c1=O", "> 100 µM (inactive)"),
]

Consider the record given below.
Name the reported GI50 value associated with the compound `COC(=O)c1c(C#N)c(N)nc2c1CCC2`
> 100 µM (inactive)

###

Tested on: EKVX
Protocol Description: NCI tumour cell line growth inhibition, 48 h
Calls of active or inactive are those of the source. Cut-off read from the data, not from the text of the source: active = GI50 up to about 1.1 µM and inactive = higher.
Give one outcome, nothing more. List: 1 = active, 0 = inactive

Example cases with answers are listed next.
# Compound, Class Name
data = [
    ("COc1ccc(S(=O)(=O)O)cc1-n1nc(C(=O)Nc2ccccc2)n[n+]1-c1cc(S(=O)(=O)[O-])ccc1OC", 0),
    ("CC[N+]1(C)CCC(O)(c2ccccc2)C(C(=O)c2ccccc2)C1 (stereo not given)", 0),
    ("COC(=O)CCCC(=O)NC1=C(Nc2ccccc2)C(=O)c2ccccc2C1=O", 0),
]

I would be grateful if you could indicate the recorded call for `COc1ccc(C(=O)c2sc(Nc3ccc(Cl)cc3)nc2N)cc1` .
0

Per the records of this test, what outcome belongs to `CCOC(=O)c1c(SCC#N)n(-c2ccccc2)c(=S)n(-c2ccccc2)c1=O` ?
0

Outcome logged for `COc1c(-c2cccs2)oc2c(CC(=O)O)cccc2c1=O` in this assay:
0

Hi team, can someone confirm the assay call for `C/C(=N\Nc1nc2ccccc2s1)c1cnccn1` ?
1

Record request — test call for COc1cc2c(cc1OC)C(C(CBr)CBr)N(C1CCCC1)CC2 (stereo not given)
0

Any idea what this test logged for CO[C@H]1CC[C@]2(C)C3=CC[C@@]4(C)C(CC[C@@H]4C(C)CC[C@@H](C)C(C)C)C(=CCC2C1)O3 (stereo not given in full) ?
0

// return assay outcome for Nc1nc(Cl)c(N)c(NCC2(CO)CC(Cc3ccccc3)C2)n1 (stereo not given)
0
